Each recorded value in this set is attributed to PubChem BioAssay.

tested on: Noggin (protein binding on small-molecule microarray); assay: Noggin binders on small-molecule microarray, primary screen, biochemical, 635/667 nm fluorescence (AID 1095); conditions: 635 nm fluorescence, higher = more signal;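 note: score merges 667 nm feature fluorescence with signal to noise over triplicate slides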
Property: composite z-score

C=C1C(=O)C=C2CN(C(=O)c3ccccc3)[C@@](Cc3ccc(F)cc3)(C(=O)OC)[C@@H]12; 0.0319
CC(C)c1ccc(NN2C(C(O)c3ccccc3)C=CC3C(=O)N(c4ccccc4)C(=O)C32)cc1 (stereo not drawn); -0.621
C=C(COC)C(=O)CC[C@H](OC(C)=O)c1ccccc1OCCO; 0.985
CCOC(=O)C1=CCC(c2ccncc2)N(S(=O)(=O)c2ccc(C)cc2)C1 (stereo not drawn); 0.361
CCN1C(=O)C2CC(=O)C3C(CN(S(=O)(=O)c4ccc(C)cc4)C3c3ccc(C)cc3)C2C1=O (stereo not drawn); -0.841
C=CC[C@]1(C(=O)NCCN2CCOCC2)N=C(c2ccc(OCCCO)cc2)O[C@H]1c1ccccc1; 0.816
COC(=O)[C@]1(Cc2ccccc2N=[N+]=[N-])N=C(c2ccc(OCCCO)cc2)O[C@@H]1c1ccccc1CN=[N+]=[N-]; 1.23
COC(=O)[C@@]1(Cc2ccccc2)[C@H]2c3cc(C(=O)N(C)C)n(CCF)c3C[C@H]2CN1C(=O)c1ccccc1; -0.669
C=C(C(=O)CC[C@@H](OC(=O)c1ccccc1-c1ccccc1C(=O)O)c1ccc(CO)o1)C(C)C; 1.07
CC1(C)OB(/C=C\CC(OC(=O)c2ccncc2)c2ccccc2)OC1(C)C (stereo not drawn); -1.92
O=C1O[C@@H](c2ccccc2)[C@@H](c2ccccc2)N2[C@@H](c3ccc(OCCO)cc3)[C@]3(C(=O)Nc4ccc(C#CC5=CCCCC5)cc43)[C@@H](C(=O)Nc3nc4ccccc4s3)[C@H]12; 1.11
COC(=O)[C@@]1(Cc2ccc(F)cc2)[C@H]2c3cc(C(=O)N(C)C)n(CCF)c3C[C@H]2CN1C(=O)c1ccccc1; 0.104
CC(C)C[C@@H]1NC(=O)[C@@H]2C[C@H](C(=O)NCCCCCCNC(=O)CS)[C@H](c3ccc(O)cc3)N2C1=O; 1.26
C=C(CCCC)C(=O)CC[C@H](OC(=O)c1ccccc1-c1ccccc1C(=O)O)c1cccc(OCCO)c1; 0.135
COCCCNC(=O)[C@]1(Cc2ccccc2CN=[N+]=[N-])N=C(c2ccc(OCCCO)cc2)O[C@@H]1c1ccccc1N=[N+]=[N-]; 0.0289
CC(C)C[C@@H]1NC(=O)[C@H]2C[C@@H](C(=O)O)[C@@H](c3cccc(OCCO)c3)N2C1=O; 0.492
COCCCNC(=O)[C@@]1(Cc2ccccc2I)c2ccccc2C(=O)N(C2CCCCC2)[C@H]1c1ccc(CO)cc1; 0.556
COC(=O)C(CC#Cc1ccc2c(c1)[C@]1(C(=O)N2)[C@H](C(=O)N2CCN(c3ncccn3)CC2)[C@H]2C(=O)O[C@H](c3ccccc3)[C@H](c3ccccc3)N2[C@@H]1c1ccc(O)cc1)C(=O)OC; 1.73
C=CC[C@]12N=C(c3ccc(OCCCO)cc3)O[C@H]1c1ccccc1N(CCC)C2=O; 1.2
COC(=O)C(CC#Cc1ccc2c(c1)[C@]1(C(=O)N2)[C@H](c2ccc(OCCO)cc2)N2[C@H](c3ccccc3)[C@H](c3ccccc3)OC(=O)[C@H]2[C@@H]1C(N)=O)C(=O)OC; 0.122
COc1cccc(C)c1NC(=O)O[C@H]1[C@H](OC(=O)Nc2ccccc2-c2ccccc2)[C@@H](OC(=O)Nc2ccccc2-c2ccccc2)[C@@H](OC)O[C@@H]1CO; 1.36
O=C1O[C@H](c2ccccc2)[C@H](c2ccccc2)N2[C@H]1[C@@H](C(=O)O)[C@]1(C(=O)Nc3ccccc31)[C@H]2c1ccc(OCCO)cc1; 0.286
COC(=O)C[C@H]1O[C@]2(C(=O)N(C)c3ccccc32)[C@@H](C)[C@@H]1[Si](C)(C)c1ccccc1; 1.23
COc1ccc(CCNC(=O)[C@@]2(C)c3ccccc3C(=O)N(Cc3ccc(OC(F)(F)F)cc3)[C@H]2c2ccc(CO)cc2)cc1; 1.11
COC(=O)[C@@]1(Cc2ccc(F)cc2)[C@H]2c3cc(C(=O)N4CCCC4)n(Cc4ccc(OC(F)(F)F)cc4)c3C[C@H]2CN1C(=O)c1ccccc1; -1.2
C=CCNC(=O)[C@@H]1[C@H]2C(=O)O[C@H](c3ccccc3)[C@H](c3ccccc3)N2[C@H](c2ccc(O)cc2)[C@@]12C(=O)N(C(=O)OCCOC)c1ccc(C#CCC(C(=O)OC)C(=O)OC)cc12; 1.03
[N-]=[N+]=NCc1ccccc1[C@H]1OC(c2ccc(OCCCO)cc2)=N[C@@]1(Cc1ccccc1N=[N+]=[N-])C(=O)N1CCOCC1; 0.123
C=CCNC(=O)[C@H]1[C@@H]2C(=O)O[C@@H](c3ccccc3)[C@@H](c3ccccc3)N2[C@@H](c2ccc(O)cc2)[C@]12C(=O)Nc1ccccc12; -0.0122

* * *

test system: Human papillomavirus type 1a E7 protein (residues 1-88); assay: HPV1a E7 small-molecule binders, primary screen, biochemical, small-molecule microarray, residues 1-88, 635 nm (AID 1129); conditions: small-molecule microarray binding, fluorescence 635 nm; higher = more signal
Property: composite z-score

Cc1ccc(S(=O)(=O)N2[C@@H](c3ccccc3)C(C(=O)O)=C[C@H]2C(C)(C)C)cc1; 1.18
COC(=O)[C@H]1N=C(c2ccc(OCCCO)cc2)O[C@H]1c1ccccc1N=[N+]=[N-]; 1.16
C=CCNC(=O)[C@@H]1[C@H]2C(=O)O[C@H](c3ccccc3)[C@H](c3ccccc3)N2[C@H](c2ccc(OCCO)cc2)[C@@]12C(=O)Nc1ccc(C#CC3=CCCCC3)cc12; 1.23
CCOC(=O)C=C1C[C@@H](c2cccc([N+](=O)[O-])c2)O[C@@H](c2cccc([N+](=O)[O-])c2)O1; 1.11
COc1ccc(C(O)C2C=CC3C(=O)N(c4ccccc4)C(=O)C3N2Nc2ccccc2F)c2ccccc12 (stereo not drawn); 1.23
CN1C(=O)C2C(C1=O)C1C=C(CCCO)C2C(C2CC2)N1C (stereo not drawn); -0.404
COc1ccc(CCNC(=O)[C@@H]2c3ccccc3C(=O)N(C(C)C)[C@H]2c2ccc(CO)cc2)cc1; -0.878
COCCOC(=O)N1C(=O)[C@@]2(c3cc(C#CCNC(N)=O)ccc31)[C@H](C(=O)Nc1nc3ccccc3s1)[C@H]1C(=O)O[C@H](c3ccccc3)[C@H](c3ccccc3)N1[C@@H]2c1ccc(O)cc1; 0.93

* * *

biological target: Neurogenic locus notch homolog protein 3 (Homo sapiens); assay: NOTCH3 binders on small-molecule microarray, primary screen, biochemical, 635/667 nm fluorescence (AID 1096); conditions: NOTCH3 binding, 635 nm fluorescence, higher = more signal
Binary call on composite z-score: t from 0.3 upward, f beneath that.

C=C(COC)C(=O)CC[C@H](OC(C)=O)c1ccc(CO)o1; t
C=C(C(=O)CC[C@@H](OC(=O)c1cccnc1)c1cccc(OCCO)c1)C(C)C; f
O=C1O[C@H](c2ccccc2)[C@H](c2ccccc2)N2[C@H]1[C@@H](C(=O)O)[C@]1(C(=O)Nc3ccc(C#CC4(O)CCCCCC4)cc31)[C@H]2c1ccccc1OCCO; t
C=CCC(OC(C)=O)[C@@H]1[C@@H](N(Cc2cccc3ccccc23)C(=O)c2ccc(C)cc2)c2cc(OCCCO)ccc2N1C(=O)Cc1ccc2ccccc2c1 (stereo not given in full); f
C=CCNC(=O)[C@H]1[C@@H]2C(=O)O[C@@H](c3ccccc3)[C@@H](c3ccccc3)N2[C@@H](c2ccc(OCCO)cc2)[C@]12C(=O)Nc1ccc(C#Cc3ccc(OC)cc3)cc12; t
O=C1NC(=O)C2C1C=CC(C(O)C(O)CO)N2Nc1ccccn1 (stereo not given); t
CCCC[C@@H](O)C1=C(C)Cn2c(=O)n(-c3ccccc3)c(=O)n2[C@H]1CO; f
COCCCNC(=O)[C@@]1(CCC(=O)OC(C)(C)C)N=C(c2ccc(OCCCO)cc2)O[C@H]1c1ccccc1; f
Cc1ccc(N2C(=O)c3ccccc3[C@@H](C(=O)NCCN3CCOCC3)[C@@H]2c2ccc(CO)cc2)nc1; f
COCCCNC(=O)[C@@]1(Cc2ccccc2I)c2ccccc2C(=O)N(Cc2ccccc2OC)[C@H]1c1ccc(CO)cc1; f
C=C(C(=O)CC[C@@H](OC(=O)c1ccccc1-c1ccccc1C(=O)O)c1ccc(CO)o1)C(C)C; t
COc1ccc(CCNC(=O)[C@@H]2c3ccccc3C(=O)N(Cc3cc(F)cc(C(F)(F)F)c3)[C@H]2c2ccc(CO)cc2)cc1; f
C[C@]12C(=O)N(CCO)[C@@H]3C(=O)N(c4ccc(Cl)cc4)CC=CC31O[C@@H]1/C=C\CCCOC(=O)C12 (stereo not given in full); f
COCCCNC(=O)[C@@]1(Cc2ccccc2I)c2ccccc2C(=O)N(C2CCCCC2)[C@H]1c1ccc(CO)cc1; t
CO[C@H]1O[C@H](CO)[C@@H](OC(=O)CCc2ccccc2)[C@@H]2OC(=O)[C@@H](Cc3ccc4ccccc4c3)C/C=C/C[C@H](Cc3ccc4ccccc4c3)C(=O)O[C@@H]12; f
